assay.system: T1, PD-1 molecule (refolded, purified and biotinylated PD-1 of Example 2) (UniProt Q15116 33-150, biotinylated with BirA enzyme (site not stated))
T1 construct: also called Programmed Death-1
T1 sequence (Q15116 33-150 limits assumed): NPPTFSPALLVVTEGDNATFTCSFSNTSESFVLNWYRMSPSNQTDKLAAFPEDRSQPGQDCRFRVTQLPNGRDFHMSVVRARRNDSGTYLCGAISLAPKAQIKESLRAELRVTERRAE
assay.notes: SPR (BIAcore T200), single-cycle kinetics; biotinylated PD-1 captured via streptavidin, PDL-1 variant in solution
outcome.measure: log10(koff) (log10 of the value in s⁻¹)
A difference of one corresponds to tenfold koff; all values are log10 with koff in s⁻¹.

[ask] For the binder high affinity PDL-1 molecule L3B3b (ligand) FTVTVPKDLYVVEYGSNMTIECKFPVEKQLDLAALQVFWMMEDKNIVSFVHGEEDLKVQHSSYRQRARLLKDQLSLGNAALQITDVKLQDAGVYVCLIAYKGADYKRITVKVNAPYNKINQRILVVDPVTSEHELTCQAEGYPKAEVIWTSSDHQVLSGKTTTTNSKREEKLFNVTSTLRINTTTNEIFYCTFRRLDPEENHTAELVIPEL , what log10(koff) is on record?
[reply] -1.24

[ask] For the binder high affinity PDL-1 molecule L3B3 (ligand) FTVTVPKDLYVVEYGSNMTIECKFPVEKQLDLAALQVFWMMEDKNIIQFVHGEEDLKVQHSSYRQRARLLKDQLSLGNAALQITDVKLQDAGVYTCLIAYKGADYKRITVKVNAPYNKINQRILVVDPVTSEHELTCQAEGYPKAEVIWTSSDHQVLSGKTTTTNSKREEKLFNVTSTLRINTTTNEIFYCTFRRLDPEENHTAELVIPEL , what log10(koff) is on record?
[reply] -1.15

[ask] For the binder high affinity PDL-1 molecule L3C7a (ligand) FTVTVPKDLYVVEYGSNMTIECKFPVEKQLDLAALEVHWFMEDKNIFSFVHGEEDLKVQHSSYRQRARLLKDQLSLGNAALQITDVKLQDAGVYTCLIGYKGADYKRITVKVNAPYNKINQRILVVDPVTSEHELTCQAEGYPKAEVIWTSSDHQVLSGKTTTTNSKREEKLFNVTSTLRINTTTNEIFYCTFRRLDPEENHTAELVIPEL , what log10(koff) is on record?
[reply] -1.86

[ask] For the binder high affinity PDL-1 molecule L2F4 (ligand) FTVTVPKDLYVVEYGSNMTIECKFPVEKQLDLAALEVHWFMEDKNIFSFVHGEEDLKVQHSSYRQRARLLKDQLSLGNAALQITDVKLQDAGVYRCMISYGGADYKRITVKVNAPYNKINQRILVVDPVTSEHELTCQAEGYPKAEVIWTSSDHQVLSGKTTTTNSKREEKLFNVTSTLRINTTTNEIFYCTFRRLDPEENHTAELVIPEL , what log10(koff) is on record?
[reply] -0.81

[ask] For the binder high affinity PDL-1 molecule L3B3a (ligand) FTVTVPKDLYVVEYGSNMTIECKFPVEKQLDLAALQVFWMMEDKNIVSFVHGEEDLKVQHSSYRQRARLLKDQLSLGNAALQITDVKLQDAGVYTCLIAYKGADYKRITVKVNAPYNKINQRILVVDPVTSEHELTCQAEGYPKAEVIWTSSDHQVLSGKTTTTNSKREEKLFNVTSTLRINTTTNEIFYCTFRRLDPEENHTAELVIPEL , what log10(koff) is on record?
[reply] -1.05
